Test system: NCI-H226 lung
Assay: NCI tumour cell line growth inhibition, 48 h
Measured Property: TGI (µM)

>>> measured_number("COC(=O)c1c2c(c[n+]([O-])c1C)C(=O)C=C(NCc1ccccc1)C2=O")
1.49
>>> measured_number("O=C1/C(=C\\c2ccc(Br)cc2)CN(C(=O)c2ccccc2F)C/C1=C\\c1ccc(Br)cc1")
13.6
>>> measured_number("CCCCCCCCCCCCCCCCP(=O)(OC)OC")
33.2

* * *

System: PC-3 prostate
Assay: NCI tumour cell line growth inhibition, 48 h
Measured Property: TGI

>>> result("N#CCCC(CC#N)N1CCN(C(CC#N)CCC#N)CC1 (centres undefined)")
"> 100 µM"
>>> result("CCCCC/C=C\\C=C1\\C(=O)C=C[C@@H]1C/C=C\\CCCC(=O)O")
"5.13 µM"
>>> result("O=C1OCC2=C1C(c1cccc(F)c1)c1cc3c(cc1N2CCO)CCC3 (centres undefined)")
"> 50 µM"
>>> result("NC(CSC(=O)c1ccccc1)C(=O)O (centres undefined)")
"> 100 µM"
>>> result("Cc1cn(CCOCCOC(=O)NC(CCCN=C(N)N)C(=O)O)c(=O)[nH]c1=O (centres undefined)")
"> 100 µM"
>>> result("Cc1ccc(C(=O)Nc2ccc(S(=O)(=O)O)c3cc(S(=O)(=O)O)cc(S(=O)(=O)O)c23)cc1NC(=O)Nc1cc(C(=O)Nc2ccc(S(=O)(=O)O)c3cc(S(=O)(=O)O)cc(S(=O)(=O)O)c23)ccc1C")
"> 87.5 µM"
>>> result("Cc1cc(S(=O)(=O)Nc2nc(N)nc(N(C)C)n2)c(S)cc1Cl")
"> 10 µM"
>>> result("COc1cc(Nc2cc(C)nc(N3CCN(c4ccnc5cc(Cl)ccc45)CC3)n2)cc(OC)c1")
"> 100 µM"
>>> result("Nc1nc(-c2cccc3ccccc23)cc2ccccc12")
"4.08 µM"
